Property: SPOT signal as a fraction of Bim BH3's signal on the same receptor and array; scope: individual binders
Target: T1, Mcl-1, Q07820
T1 chain: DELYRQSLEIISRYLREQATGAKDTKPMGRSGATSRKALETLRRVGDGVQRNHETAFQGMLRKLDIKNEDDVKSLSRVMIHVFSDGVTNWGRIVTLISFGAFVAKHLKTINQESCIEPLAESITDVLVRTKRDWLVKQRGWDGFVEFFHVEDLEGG
Test: peptide SPOT array, c-Myc-tagged receptor at 1 uM or 100 nM, anti-c-Myc-Cy3
Just the number, please, no unit after it.

The following binders have reported results that may help.
INSERT INTO assay_data (binder, endpointresult) VALUES
  ('RVCPYYLSRNLKQQLDIIFMPYNYLL [RTEL1]', 0.75),
  ('QRKHEGFERDDAALGDKVNSLGETAE [SPTAN1]', 0.09),
  ('SPVPPVVHLTLRQAGDDFSRRYRRDF [BCL2]', 0.26);

Asked: Output SPOT signal as a fraction of Bim BH3's signal on the same receptor and array of AYRGRGIAKHLAKAALDFVVEEDLKA [C17orf103]
Given back: 0.07
